Just for reference, paper PMC5155426 is where these values come from.

Below: a set of entries, each annotated with reported Peak current ratio.
experiment.description: Cyclic voltammetry: formal redox potential, peak current ratio, electrochemical reversibility
Format: physicochemical
condition.label: pH 0

Please review the following examples before continuing.
compound	Peak current ratio
O=C1c2cccc(S(=O)(=O)[O-])c2C(=O)c2c1cccc2S(=O)(=O)[O-].[K+].[K+]	1.04(7)
O=C1c2ccccc2C(=O)c2c1ccc(O)c2O [AQDH(1,2), 1,2-dihydroxy-9,10-anthraquinone]	0.73(7)

// next item, Peak current ratio requested
For the compound Oc1ccc(O)cc1 [HQ(1,4), Para hydroquinone] , what Peak current ratio is on record?
2.3(1)

###

Measured solubility, listed per entry.
experiment.description: Aqueous solubility estimation (OECD test #105) in 1 M supporting electrolytes
condition.label: 1 M KCl supporting electrolyte prepared from MilliQ water, saline or isotonic, thermodynamic from solid, Solubility, 1 M KCl, room temperature

Use these answered entries as a reference point.
compound	readout.name	result
O=C1C=C(O)C(=O)C=C1O [BQ(1,4)DH, 2,5-dihydroxy-1,4-benzoquinone]	solubility	< 10 mM
O=C1c2cccc(O)c2C(=O)c2cccc(O)c21 [AQDH(1,5), 1,5-dihydroxy-9,10-anthraquinone]	solubility	< 10 mM
O=C1C=C(S(=O)(=O)O)c2ccccc2C1=O [NQ(1,2)S, 1,2-naphtoquinone-4-sulfonate sodium]	solubility	~10 mM
c1cnccn1 [Pyrazine, 1,4-diazine]	solubility	~7000 mM
CC(C)=CCC1=C(O)C(=O)c2ccccc2C1=O [NQ(1,4)HB]	solubility	< 10 mM
O=C1C(Cl)=C(Cl)C(=O)c2c(O)ccc(O)c21 [NQ(1,4)DHDCl]	solubility	< 10 mM

Dear colleague, I am looking for the recorded solubility of the following compound: O=C1C(O)=C(O)C(=O)C(O)=C1O [BQ(1,4)TH, Tetrahydroxy-1,4-benzoquinone]
< 10 mM

# solubility lookup, item O=C1c2ccc(O)cc2C(=O)c2ccc(O)cc21 [AQDH(2,6), 2,6-dihydroxy-9,10-anthraquinone]
< 10 mM

Please look up its solubility: O=C1C(O)=C(Cl)C(=O)C(O)=C1Cl [BQ(1,4)DHDCl, 2,5-dichloro-3,6-1,4-benzoquinone]
10 mM

###

experiment.description: Aqueous solubility estimation (OECD test #105) in 1 M supporting electrolytes
condition.label: 1 M KCl supporting electrolyte prepared from MilliQ water, saline or isotonic, thermodynamic from solid, Solubility, 1 M KCl, room temperature
readout.name: solubility

compound	solubility
Oc1c(F)c(F)c(O)c(F)c1F [HQ(1,4)TF, 1,2,4,5-tetrafluoro-3,6-dihydroxybenzene]	10 mM
O=C1c2c(O)ccc(O)c2C(=O)c2c(O)ccc(O)c21 [AQTH(1,4), 1,4,5,8-tetrahydroxy-9,10-anthraquinone]	< 10 mM
O=C1c2ccccc2C(=O)c2c(O)ccc(O)c21 [AQDH(1,4), 1,4-dihydroxy-9,10-anthraquinone]	< 10 mM

Fill blank: measured solubility of the compound O=C1C=C(O)C(=O)c2ccccc21 [NQ(1,4)H, 2-hydroxy-1,4-naphtoquinone] is ____.
< 10 mM

###

experiment.description: Cyclic voltammetry: formal redox potential, peak current ratio, electrochemical reversibility
Assay type: physicochemical
condition.label: pH 7
Documented Peak current ratio across a set of molecules

molecule	Peak current ratio
O=C1c2ccccc2C(=O)c2c1cc(S(=O)(=O)O)c(O)c2O	0.85(6)
O=C1c2ccccc2C(=O)c2cc(S(=O)(=O)O)ccc21 [AQS(2), 9,10-anthraquinone-2-sulfonate sodium]	0.88(1)
O=C1C=C(O)C(=O)c2ccccc21 [NQ(1,4)H, 2-hydroxy-1,4-naphtoquinone]	1.2(3)
O=C1c2ccc(S(=O)(=O)O)cc2C(=O)c2cc(S(=O)(=O)O)ccc21	0.56(3)
Oc1c(Cl)c(Cl)c(O)c(Cl)c1Cl [HQ(1,4)TCl, Tetrachloro hydroquinone]	1.1(2)

So what does the record say about Peak current ratio for O=C(O)c1cc(O)c2c(c1)C(=O)c1cccc(O)c1C2=O ?
0.69(8)

Entry O=C1c2ccc(O)cc2C(=O)c2ccc(O)cc21 [AQDH(2,6), 2,6-dihydroxy-9,10-anthraquinone] : reported Peak current ratio = ?
0.9(1)

# Peak current ratio lookup, item O=C1c2cccc(S(=O)(=O)[O-])c2C(=O)c2c1cccc2S(=O)(=O)[O-].[K+].[K+]
0.4(1)

###

experiment.description: Cyclic voltammetry: formal redox potential, peak current ratio, electrochemical reversibility
Format: physicochemical
condition.label: pH 7 (0.5 M phosphate buffer); midpoint of CV peak potentials
readout.name: formal redox potential E0'

structure.as.smiles	result
c1ccc2nc3ccccc3nc2c1	Unstable
O=C(O)c1cnccn1	Unstable
O=C(O)c1cc(O)c2c(c1)C(=O)c1cccc(O)c1C2=O	-0.267(1) VNHE

###

experiment.description: Cyclic voltammetry: formal redox potential, peak current ratio, electrochemical reversibility
Assay type: physicochemical
condition.label: pH 7
# Peak current ratio annotations

compound	Peak current ratio
CC(C)=CCC1=C(O)C(=O)c2ccccc2C1=O	1.08(5)
Oc1ccc(O)cc1 [HQ(1,4), Para hydroquinone]	1.2(3)

# lookup: Peak current ratio of Cc1cc(O)c2c(c1)C(=O)c1cc(O)cc(O)c1C2=O
0.19(6)

###

experiment.description: pKa of the central (hydro)quinone groups estimated from the Pourbaix diagram
Format: physicochemical
condition.label: aqueous media, estimated from slope change in Pourbaix diagram, Fig. 5; read-out: pKa1 of the (hydro)quinone groups
readout.name: pKa

Completed entries (count: 2):
compound	result
O=C1c2ccc(O)cc2C(=O)c2ccc(O)cc21 [AQDH(2,6), 2,6-dihydroxy-9,10-anthraquinone]	> 13
O=C1c2cccc(O)c2C(=O)c2c(O)cccc21 [AQDH(1,8), 1,8-dihydroxy-9,10-anthraquinone]	~4

Next, consider the following compound.
I have this compound here, O=C1c2ccc(S(=O)(=O)O)cc2C(=O)c2cc(S(=O)(=O)O)ccc21 , and I need its recorded pKa.
7

###

experiment.description: Cyclic voltammetry: formal redox potential, peak current ratio, electrochemical reversibility
Format: physicochemical
condition.label: pH 7 (0.5 M phosphate buffer); midpoint of CV peak potentials
readout.name: formal redox potential E0'

See these solved cases before continuing.
compound	formal redox potential E0'
O=C1C=C(S(=O)(=O)O)c2ccccc2C1=O [NQ(1,2)S, 1,2-naphtoquinone-4-sulfonate sodium]	0.24(1) VNHE
O=C1c2ccc(O)c(O)c2C(=O)c2c(O)ccc(O)c21 [AQTH(1,2), 1,2,5,8-tetrahydroxy-9,10-anthraquinone]	-0.414(3) VNHE

We now examine a further compound.
Given the compound O=S(=O)(O)c1cc(O)c(O)c(S(=O)(=O)O)c1 , what is its reported formal redox potential E0'?
0.7 VNHE

###

experiment.description: Cyclic voltammetry: formal redox potential, peak current ratio, electrochemical reversibility
Format: physicochemical
condition.label: pH 0 to pH 13
pH dependence (slope) of E0' for assorted compounds
Please reply with the bare figure in mV/pH unit and do not write the unit itself.

compound	value.units	readout.number
O=C1C=C(O)C(=O)c2ccccc21 [NQ(1,4)H, 2-hydroxy-1,4-naphtoquinone]	mV/pH unit	67
CC(C)=CCC1=C(O)C(=O)c2ccccc2C1=O [NQ(1,4)HB]	mV/pH unit	67
O=C1C(O)=C(Cl)C(=O)C(O)=C1Cl [BQ(1,4)DHDCl, 2,5-dichloro-3,6-1,4-benzoquinone]	mV/pH unit	−76

Recorded pH dependence (slope) of E0' of O=C1C=CC(=O)C=C1 [para-BQ] , please.
−45

###

experiment.description: Cyclic voltammetry: formal redox potential, peak current ratio, electrochemical reversibility
Type: physicochemical
condition.label: pH 13
Method: The investigated compounds were used as-purchased and without any purification. […] For each series of CVs, a freshly polished electrode was used. The CVs for soluble compounds in 1 mM concentration were recorded in a glass beaker with a customized lid in nitrogen purged solutions of three different pHs, namely pH 0 (1 M H2SO4), pH 7 (0.5 M phosphate buffer) and pH 13 (1 M NaOH). […] A background CV was recorded before each CV experiment to exclude background contaminations. […]
readout.name: Electrochemical reversibility

compound	Electrochemical reversibility
O=C1c2cccc(S(=O)(=O)[O-])c2C(=O)c2cccc(S(=O)(=O)[O-])c21.[Na+].[Na+]	Reversible
O=C1c2ccc(O)cc2C(=O)c2ccc(O)cc21 [AQDH(2,6), 2,6-dihydroxy-9,10-anthraquinone]	Reversible
O=C1c2cccc(S(=O)(=O)[O-])c2C(=O)c2c1cccc2S(=O)(=O)[O-].[K+].[K+]	Reversible
O=C1c2cccc(O)c2C(=O)c2cccc(O)c21 [AQDH(1,5), 1,5-dihydroxy-9,10-anthraquinone]	Quasireversible
O=C1c2ccccc2C(=O)c2c1ccc(O)c2O [AQDH(1,2), 1,2-dihydroxy-9,10-anthraquinone]	Quasireversible

Dear colleague, I am looking for the recorded Electrochemical reversibility of the following compound: O=C1c2cccc(O)c2C(=O)c2c(O)cc(CO)cc21
Reversible

# Electrochemical reversibility lookup, item O=C1c2cccc(O)c2C(=O)c2c(O)cccc21 [AQDH(1,8), 1,8-dihydroxy-9,10-anthraquinone]
Reversible
